Test system: Methicillin Resistant Staphylococcus pseudointermedius
Test: Antibiogram of clinical isolate
Type: cell-based
Conditions: veterinary clinical isolate
Can you tell me diameter zone of inhibition against antibiotic disc for the items I'm about to list?
Answers are plain numbers, in mm.

Previously resolved entries follow.
CO[C@@]1(NC(=O)Cc2cccs2)C(=O)N2C(C(=O)O)=C(COC(N)=O)CS[C@@H]21 [Cefoxitin]: 24
C[C@@H]1CN(c2c(F)c(F)c3c(=O)c(C(=O)O)cn(C4CC4)c3c2F)C[C@H](C)N1 [Orbifloxacin]: 6
CN(C)[C@@H]1C(O)=C(C(N)=O)C(=O)[C@@]2(O)C(O)=C3C(=O)c4c(O)cccc4[C@@](C)(O)[C@H]3C[C@@H]12 [Tetracycline]: 8

Fill in diameter zone of inhibition against antibiotic disc for each of the 2 compounds listed.
1. CO/N=C(/C(=O)N[C@@H]1C(=O)N2C(C(=O)O)=C([C@@H]3CCCO3)CS[C@H]12)c1csc(N)n1 [Cefovecin]
2. CC(=O)OCC1=C(C(=O)O)N2C(=O)[C@@H](NC(=O)Cc3cccs3)[C@H]2SC1 [Cephalothin]

(A)
1: 21; 2: 27

Fill in diameter zone of inhibition against antibiotic disc for each of the 2 compounds listed.
1. Cc1onc(-c2ccccc2)c1C(=O)N[C@@H]1C(=O)N2[C@@H]1SC(C)(C)[C@@H]2C(=O)O [Oxacillin]
2. CCC[C@@H]1C[C@@H](C(=O)N[C@@H]([C@H]2O[C@H](SC)[C@H](O)[C@@H](O)[C@H]2O)[C@H](C)Cl)N(C)C1 [Clindamycin]

(A)
1. 14
2. 7

Fill in diameter zone of inhibition against antibiotic disc for each of the 2 compounds listed.
1. CN1CCN(c2c(F)cc3c(=O)c(C(=O)O)cn4c3c2OCN4C)CC1 [Marbofloxacin]
2. CCN1CCN(c2cc3c(cc2F)c(=O)c(C(=O)O)cn3C2CC2)CC1 [Enrofloxacin]

(A)
[6, 6]

Fill in diameter zone of inhibition against antibiotic disc for each of the 2 compounds listed.
1. CC1(C)S[C@@H]2[C@H](NC(=O)[C@H](N)c3ccccc3)C(=O)N2[C@H]1C(=O)O [Ampicillin]
2. CNC(C)C1CCC(N)C(OC2C(N)CC(N)C(OC3OCC(C)(O)C(NC)C3O)C2O)O1 (centres unmarked) [Gentamicin]

(A)
[13, 14]

Origin of measurements: paper PMC7407491
